Tested on: NIH3T3
assay.procedure: Cytotoxic Profiling of Annotated Libraries Using Quantitative High-Throughput Screening (AID 1296008); further: nearly all actives have a fitted effect of over 60% in size
condition.details: Five cell lines viability, CellTiter-Glo ATP luminescence, 48-72 h
Inconclusive results are not listed. Calls of active or inactive are those of the source. The call rests on the fitted dose curve; in most records, active means well fitted inhibition curve with a large enough effect; inconclusive means small, poorly fitted or top-dose-only effect; inactive means flat fitted curve, though single readings scatter. Residues, ends and D or L forms follow the SMILES beside them. *: point of attachment. Cbz = O=C(OCc1ccccc1)*
Outcomes: 1 for active, -1 for inactive

INSERT INTO results (molecule, class) VALUES
  ('NC(=O)c1cccc(-c2cccc(OC(=O)NC3CCCCC3)c2)c1', -1),
  ('O=C(Nc1ccc(Oc2ccnc3[nH]ccc23)c(F)c1)c1cccn(-c2ccc(F)cc2)c1=O', -1),
  ('COC1=C2C[C@@H](C)C[C@H](OC)[C@@H](O)[C@@H](C)C=C(C)[C@H](OC(N)=O)[C@@H](OC)C=CC=C(C)C(=O)NC(=CC1=O)C2=O', 1),
  ('Cc1cnc(NC(=O)Nc2cc(Br)c(C)cc2OC[C@@H]2CNCCO2)cn1', 1),
  ('CC[C@H]1OC(=O)[C@H](C)[C@@H](O[C@H]2C[C@@](C)(OC)[C@@H](O)[C@H](C)O2)[C@H](C)[C@@H](O[C@@H]2O[C@@H](C)C[C@H](N(C)C)[C@@H]2O)[C@](C)(O)C[C@@H](C)C(=O)[C@H](C)[C@@H](O)[C@]1(C)O', -1),
  ('CC(C)N1[N]C(=C2C=c3cc(O)ccc3=N2)c2c(N)ncnc21', 1),
  ('O=C(O)[C@H](CC(=O)N1C[C@@H]2CCCC[C@H]2C1)Cc1ccccc1', -1),
  ('O=C(Nc1cccc(Nc2ncc(Br)c(NCCc3cnc[nH]3)n2)c1)N1CCCC1', 1),
  ('C[C@H](NCc1ccc2c(c1)nc(NC(=O)c1ccc(-c3cn[nH]c3)s1)n2CCc1ccccc1)C(C)(C)C', 1),
  ('CCN(CC)Cc1ccc2cc(COC(=O)Nc3ccc(C(=O)NO)cc3)ccc2c1', 1),
  ('O=C(NNC(=O)c1ccc(CNS(=O)(=O)c2ccc(F)c(Cl)c2)cc1)c1ccccc1', -1),
  ('OCc1ccccc1O[C@@H]1O[C@H](CO)[C@H](O)[C@H](O)[C@H]1O', -1),
  ('Cc1ccc(O)c(C(CCN(C(C)C)C(C)C)c2ccccc2)c1 (stereo not drawn)', -1),
  ('CC(C)C[C@@H](C=O)NC(=O)[C@H](CC(C)C)NC(=O)[C@H](CC(C)C)NC(=O)OCc1ccccc1 (Cbz-Leu-Leu-Leu-aldehyde)', 1),
  ('O=C1NC(=O)[C@@H](c2cn3c4c(cccc24)CCC3)[C@H]1c1c[nH]c2ccccc12', 1),
  ('Nc1nc2c(c(=O)[nH]1)N(C=O)[C@H](CNc1ccc(C(=O)N[C@@H](CCC(=O)O)C(=O)O)cc1)CN2', -1),
  ('CCNC(=O)c1cc2c(-c3cc(OCCN4CCCC4)c(Cl)cc3Cl)nc(N)nc2s1', 1),
  ('COc1ccc(Nc2cc(-c3cnc(N)nc3)nc(N3CCOCC3)n2)cn1', 1);
